src = the supplement of paper PMC10567573

B1: KLHL14 (parent)
chain: YVIGGRNETGYLSSVECYNLETNE

variants of: B1; assay: protein stability index of a GFP-peptide fusion (GPS, HEK-293T) (PSI 1-6); higher = more stable; details: c terminus: a fixed tail appended;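 note: lentivirally expressed fusions sorted by FACS into six bins by GFP to DsRed ratio, PSI derived from sequencing read proportions per bin multiplied by bin number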
Label Y when protein stability index is at or above 2; anything below gets N.

INSERT INTO measurements (record_sequence, assigned_label) VALUES
  ('YVIGGRNETGYLSSVEVYNLETNE [C17V]', 'N'),
  ('YVIGGRNETGGLSSVECYNLETNE [Y11G]', 'Y'),
  ('YVIGGRNETRYLSSVECYNLETNE [G10R]', 'Y'),
  ('YVIGGRNETGYLESVECYNLETNE [S13E]', 'Y'),
  ('YVIGGRNMTGYLSSVECYNLETNE [E8M]', 'Y'),
  ('YVIGGRNSTGYLSSVECYNLETNE [E8S]', 'Y'),
  ('YVIGPRNETGYLSSVECYNLETNE [G5P]', 'N'),
  ('YVIGGRNEEGYLSSVECYNLETNE [T9E]', 'Y'),
  ('YVIGGRNETGYLHSVECYNLETNE [S13H]', 'N'),
  ('YVIGGRNETGYLSSVEPYNLETNE [C17P]', 'Y'),
  ('YVIGGRNETGYLSSVLCYNLETNE [E16L]', 'Y'),
  ('YRIGGRNETGYLSSVECYNLETNE [V2R]', 'Y'),
  ('YVIGGRNEVGYLSSVECYNLETNE [T9V]', 'Y'),
  ('YVIGGRNETGYLSSTECYNLETNE [V15T]', 'N'),
  ('YVIGGRNETGYLSSVECYRLETNE [N19R]', 'N'),
  ('YVIGGRNETGYLSEVECYNLETNE [S14E]', 'Y'),
  ('YVIGARNETGYLSSVECYNLETNE [G5A]', 'N'),
  ('YVIGGENETGYLSSVECYNLETNE [R6E]', 'Y'),
  ('YVIGCRNETGYLSSVECYNLETNE [G5C]', 'N'),
  ('YVIQGRNETGYLSSVECYNLETNE [G4Q]', 'Y'),
  ('YVIGGRNETGYLSSVECYNLEDNE [T22D]', 'Y'),
  ('YVIGGRNETGYLSSVECYNLETLE [N23L]', 'N'),
  ('YMIGGRNETGYLSSVECYNLETNE [V2M]', 'Y'),
  ('YVIGGRNETWYLSSVECYNLETNE [G10W]', 'Y'),
  ('YVIGGRNETGYLSIVECYNLETNE [S14I]', 'Y'),
  ('YVIGGRYETGYLSSVECYNLETNE [N7Y]', 'N'),
  ('YVIGGRVETGYLSSVECYNLETNE [N7V]', 'N'),
  ('YVVGGRNETGYLSSVECYNLETNE [I3V]', 'Y'),
  ('YVINGRNETGYLSSVECYNLETNE [G4N]', 'N'),
  ('YVIGGRNETGYLSSVECYNLETNH [E24H]', 'N'),
  ('YVIGGRNETGLLSSVECYNLETNE [Y11L]', 'Y'),
  ('YVIRGRNETGYLSSVECYNLETNE [G4R]', 'N'),
  ('YVIGGRNETGYLSSPECYNLETNE [V15P]', 'Y'),
  ('YVIGGRMETGYLSSVECYNLETNE [N7M]', 'N'),
  ('YVIPGRNETGYLSSVECYNLETNE [G4P]', 'Y'),
  ('YVIGGRNETGYLSSVECYNLGTNE [E21G]', 'Y'),
  ('YVIGGRNETGYLSSVEDYNLETNE [C17D]', 'Y'),
  ('YVIGGRNETGYLSSVECYNLTTNE [E21T]', 'N'),
  ('YVIGGRNETGYLSSVECGNLETNE [Y18G]', 'Y'),
  ('YVEGGRNETGYLSSVECYNLETNE [I3E]', 'Y');
